The measurements presented in this section are drawn from the supplement of paper PMC3545927.

furin cleavage Z-score for assorted sequences
target: furin, P09958; assay: furin cleavage Z-score vs untreated control; higher = more cleavage, active = 3.5 or more, inactive = 1 or less, 8 variable residues between constant flanks; details: 7.5 min;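 also: purified furin at 1:10 enzyme:substrate in 50 mM HEPES pH 7.5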
Sequence (P09958 whole entry): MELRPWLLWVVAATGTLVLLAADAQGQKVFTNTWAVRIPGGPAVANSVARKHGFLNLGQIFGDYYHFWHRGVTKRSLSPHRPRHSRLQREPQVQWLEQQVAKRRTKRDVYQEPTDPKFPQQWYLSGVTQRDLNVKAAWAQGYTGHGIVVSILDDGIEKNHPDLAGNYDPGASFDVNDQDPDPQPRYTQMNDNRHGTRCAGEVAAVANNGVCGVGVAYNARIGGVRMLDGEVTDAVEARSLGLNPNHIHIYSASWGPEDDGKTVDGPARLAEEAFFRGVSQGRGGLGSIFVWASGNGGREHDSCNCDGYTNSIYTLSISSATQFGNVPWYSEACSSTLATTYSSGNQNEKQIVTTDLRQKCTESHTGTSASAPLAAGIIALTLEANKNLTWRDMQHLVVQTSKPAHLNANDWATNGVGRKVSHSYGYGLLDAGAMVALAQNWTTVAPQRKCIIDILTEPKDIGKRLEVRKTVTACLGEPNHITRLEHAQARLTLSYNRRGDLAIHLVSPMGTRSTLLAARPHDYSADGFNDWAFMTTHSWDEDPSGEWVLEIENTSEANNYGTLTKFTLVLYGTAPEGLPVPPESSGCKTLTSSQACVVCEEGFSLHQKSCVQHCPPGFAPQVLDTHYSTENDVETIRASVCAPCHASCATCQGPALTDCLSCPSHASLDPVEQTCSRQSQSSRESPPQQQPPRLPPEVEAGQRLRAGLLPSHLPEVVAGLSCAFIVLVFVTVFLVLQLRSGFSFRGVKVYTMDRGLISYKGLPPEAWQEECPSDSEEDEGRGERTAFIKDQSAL
The other results are listed elsewhere or left out. How many sequences the whole screen found active is unknown.
Measured quantity: furin cleavage Z-score

- Item sequence: "CAVRGRAGRSAGNASASA [FS-515]"
  Measured quantity: "furin cleavage Z-score"
  Data value: 1.52
- Item sequence: "CAKVCCSMSYAGNASASA [HC1994]"
  Measured quantity: "furin cleavage Z-score"
  Data value: 1.97
- Item sequence: "CASTGRVGRSAGNASASA [FS-1168]"
  Measured quantity: "furin cleavage Z-score"
  Data value: 4.32
- Item sequence: "CARRVRSYGQAGNASASA [FS-2084]"
  Measured quantity: "furin cleavage Z-score"
  Data value: 2.55
- Item sequence: "CAPPRRKRRQAGNASASA [FS-71]"
  Measured quantity: "furin cleavage Z-score"
  Data value: 8.73
- Item sequence: "CARHKRTIPMAGNASASA [FS-2023]"
  Measured quantity: "furin cleavage Z-score"
  Data value: 6.33
- Item sequence: "CAPCQVPSPEAGNASASA [HC1217]"
  Measured quantity: "furin cleavage Z-score"
  Data value: 0.307
